- EXPERIMENT_SUMMARY: AUC (0 to t) in overnight fasted Sprague-Dawley rat at 10 mg/kg, po measured upto 1440 mins by LC/MS/MS analysis
- Type: ADME, organism-based
- Design: route oral, dose 10 mg/kg, time <=1440
- CONDITION_INFO: in vivo
REPORTED_METRIC: AUC(0-t) at 24 h
The number alone won't do; follow it with the unit.

AUC(0-t) at 24 h in this record for Nc1nonc1-c1nc2ccccc2n1CC(=O)Nc1cnc2ccccc2c1 : 628 ng·h/mL

###

- EXPERIMENT_SUMMARY: Cmax in ICR mouse plasma at 10 mg/kg, po measured upto 240 mins
- Assay type: ADME, organism-based
- Set-up: route oral, dose 10 mg/kg, time <=240
REPORTED_METRIC: Cmax (ng/mL)
State the answer as a number, implicitly in ng/mL.

Cmax in this record for Nc1nonc1-c1nc2ccccc2n1CC(=O)Nc1cnc2ccccc2c1 : 49.9
